Each item that follows carries a reported INHIBITION.
# System: Plasmodium berghei
# Procedure Details: Screen against P. berghei liver stage (PbLuc), transformed with Luciferase, at 10uM
# Type: functional, HepG2
# Experimental Context: tested at 10 uM
Screen size: about 69,000 compounds; about 8,600 (12%) showed an effect of 50% or more. Shown is part of a subset that was picked to be rich in strong results.
Test Readout: INHIBITION (%)

> print(dat)
                                   compound  test.readout  reading
1  CCOCC1CCN(C(=O)C(c2cccc(F)c2)N(C)C)CC1 (stereo unspecified)    INHIBITION     17.5
2  O=C(NC1CCC(O)CC1)c1ccc2nc(-c3ccccc3)cn2c1 (stereo unspecified)    INHIBITION    -25.1
3  CC(Nc1nc(-c2ccccc2)nc2c1CCNCC2)c1cccnc1 (stereo unspecified)    INHIBITION     31.4
4    c1cncc(CN2CCc3c(CNc4nccs4)n[nH]c3C2)c1    INHIBITION       33
5  CN1C(=O)CC(c2ccccc2)C12CCN(CC1CCOCC1)CC2 (stereo unspecified)    INHIBITION    -7.28
6  CN(CC1Cc2ccccc2CN1C)c1nc(N)nc2c1CCNCC2 (stereo unspecified)    INHIBITION     30.8

* * *

# Tested on: Plasmodium berghei
# Procedure Details: Screen against P. berghei liver stage (PbLuc), transformed with Luciferase, at 10uM
# Type: functional, HepG2
# Experimental Context: tested at 10 uM
The whole screen tested about 69,000 compounds, of which about 8,600 (12%) showed an effect of 50% or more. This excerpt belongs to a sample that is enriched for strong results.
Label MET when INHIBITION is at or above 50%; otherwise label NOT MET.

> print(dat)
                                    compound  measurement.target  qualitative.label
 1    Cc1nc(C(C)(C)C)sc1C(=O)NCCNc1ncccc1C#N  Plasmodium berghei            NOT MET
 2    Cc1ccc(NC2CCN(C(=O)COCC(F)(F)F)CC2)nn1  Plasmodium berghei                MET
 3  O=C(O)CCc1cccc(C2CCCN2Cc2ccc(F)c(F)c2)n1 (configuration not stated)  Plasmodium berghei                MET
 4  Cc1nc(C#N)c(N2CCC(c3nc(-c4ccccc4)no3)CC2)o1  Plasmodium berghei                MET
 5  Cn1nccc1C(=O)NCCN1CCC(O)(c2ccc(F)cc2)CC1  Plasmodium berghei            NOT MET
 6  CCc1nc(C#N)c(N2CCC(c3nc(-c4ccccc4)no3)CC2)o1  Plasmodium berghei            NOT MET
 7  Cc1cc(C)nc(N2CCC(c3cccc(CCC(=O)O)n3)CC2)n1  Plasmodium berghei            NOT MET
 8  COC1(CNC(=O)NCCc2ccccc2)CCSC1 (configuration not stated)  Plasmodium berghei            NOT MET
 9  Cc1cc(C)nc(C2CCCN2c2ccnc(C)n2)n1 (configuration not stated)  Plasmodium berghei            NOT MET
10       CC(=O)Nc1ncc(S(=O)(=O)Nc2ccccc2F)s1  Plasmodium berghei            NOT MET

* * *

Each item that follows carries a reported INHIBITION.
# Tested on: Plasmodium berghei
# Procedure Details: Screen against P. berghei liver stage (PbLuc), transformed with Luciferase, at 10uM
# Format: functional, HepG2
# Experimental Context: tested at 10 uM
About 8,600 (12%) of roughly 69,000 compounds showed an effect of 50% or more. Shown is part of a subset that was picked to be rich in strong results.
Test Readout: INHIBITION

> print(dat)
                                    compound  measurement.target  test.readout  reading
 1  CC(Cn1cccn1)NC(=O)N1CCN(Cc2ccsc2)CC1 (configuration not stated)  Plasmodium berghei    INHIBITION    4.71%
 2  Cn1ccnc1CN1CCN(CC2CC2)[C@@H]2CS(=O)(=O)C[C@@H]21  Plasmodium berghei    INHIBITION    56.7%
 3  CSCC(=O)N1CCN(CC(O)C(C)(C)C)CC1 (configuration not stated)  Plasmodium berghei    INHIBITION    60.9%
 4  Cc1nc2n(n1)CC(NCc1csc(-c3ccsc3)n1)CC2 (configuration not stated)  Plasmodium berghei    INHIBITION   22.55%
 5  Cc1noc(C)c1CN1C(=O)[C@@H]2CC[C@H]1CN(C(=O)c1cscn1)C2  Plasmodium berghei    INHIBITION      45%
 6  NC(=O)c1cnc(-c2ccccc2)nc1CCNC(=O)CN1CCCC1  Plasmodium berghei    INHIBITION    12.8%
 7  Cc1ccccc1C(C(=O)NCCS(C)(=O)=O)N(C)C (configuration not stated)  Plasmodium berghei    INHIBITION    22.6%
 8  O=C(C[C@@H]1COC[C@H]2CN(C(=O)c3cccnc3)C[C@@H]12)N1CCOCC1  Plasmodium berghei    INHIBITION   -81.1%
 9   COc1ccccc1-n1nc(-c2ccco2)n(CC(N)=O)c1=O  Plasmodium berghei    INHIBITION    30.9%
10  CNc1cncc(C2CCCN2C(=O)c2ccc3nc(C)[nH]c3c2)n1 (configuration not stated)  Plasmodium berghei    INHIBITION     2.6%
11  Cn1nc(C2CCCN(Cc3cccs3)C2)c2nccnc21 (configuration not stated)  Plasmodium berghei    INHIBITION  -0.902%
12     Cc1nn(C(C)C)c2cn(CC(=O)NC3CCSCC3)nc12  Plasmodium berghei    INHIBITION   -3.83%
13  CC(C)=CCN1CCN(Cc2nccn2C)[C@H]2CS(=O)(=O)C[C@H]21  Plasmodium berghei    INHIBITION    23.9%
14                CN1CCc2onc(CNc3ncccn3)c2C1  Plasmodium berghei    INHIBITION    19.5%
15  Cc1cc(C)n(CC2CCCCN2CC(=O)Nc2nnc(C)s2)n1 (configuration not stated)  Plasmodium berghei    INHIBITION   -16.5%
16    N#Cc1ccc(NCCS(=O)(=O)N2CCc3ccccc32)nc1  Plasmodium berghei    INHIBITION      14%
17  Cc1cc(C)n(CC2CCCCN2CC(=O)Nc2nccs2)n1 (configuration not stated)  Plasmodium berghei    INHIBITION    77.6%
18  CC1=C(c2ccc(C(C)C)cc2)S(=O)(=O)N=C1N1CCc2ccccc21  Plasmodium berghei    INHIBITION      49%
19      CCc1ncc2c(n1)CN(c1nc(C)ccc1C(=O)O)C2  Plasmodium berghei    INHIBITION    9.55%
20    COc1ccc(CN2CCn3c(C(=O)N(C)C)cnc3C2)cc1  Plasmodium berghei    INHIBITION    26.4%
21  c1ccc(-c2nnc(CN3CCCC(Cn4cncn4)C3)o2)cc1 (configuration not stated)  Plasmodium berghei    INHIBITION    9.31%
22   CCO[C@@H]1CO[C@@]2(CCCN(Cc3scnc3C)C2)C1  Plasmodium berghei    INHIBITION    5.14%
23    CCN1CCN(C(=O)CCC2CCN(C(=O)CCSC)CC2)CC1  Plasmodium berghei    INHIBITION    33.5%
24  CC(=O)N(Cc1noc(C)n1)C1CCN(Cc2ncc(C(C)C)o2)C1 (configuration not stated)  Plasmodium berghei    INHIBITION    11.6%
25  Cc1ncc2c(c1CNC(=O)C1(C)CCCCO1)CCNC2 (configuration not stated)  Plasmodium berghei    INHIBITION    36.9%
26  Cc1ccc(OCC(O)CNC(=O)C2(c3ccc(F)cc3)CC2)cc1 (configuration not stated)  Plasmodium berghei    INHIBITION   -26.1%
27  CCOCCC(=O)N1CCN(CC(C)O)CC1 (configuration not stated)  Plasmodium berghei    INHIBITION    29.4%
28  CC(=O)N(C)Cc1cncc(C2CCCN2C2CCOCC2)n1 (configuration not stated)  Plasmodium berghei    INHIBITION  15.925%
29  CC(O)CN1CCN(C(=O)CCOC(C)C)CC1 (configuration not stated)  Plasmodium berghei    INHIBITION    8.05%
30  CC(C)COCCNC(=O)NC1CCCN(c2cnn(C)c2)C1 (configuration not stated)  Plasmodium berghei    INHIBITION   -49.3%
31  Cc1cnn(C2CN(CC(=O)NCCc3c[nH]c4ccccc34)C2)c1  Plasmodium berghei    INHIBITION      10%
32    O=C1CC2(CCN(Cc3ccc4cccc(O)c4n3)CC2)CN1  Plasmodium berghei    INHIBITION    58.6%
33  COc1ccc(C2(C(=O)NCc3c(C)ncc4c3CCNC4)CC2)cc1  Plasmodium berghei    INHIBITION    44.3%
34  Cc1nc(CN2Cc3nccn3CC(COCC3CC3)C2)cs1 (configuration not stated)  Plasmodium berghei    INHIBITION    41.2%
35          Cc1ncc2c(c1CNC(=O)C1(C)CC1)CCNC2  Plasmodium berghei    INHIBITION    14.6%
36  CCc1oc(C(=O)N2CC[C@@H]3CC[C@H](C2)N3)cc1CN(CC)CC  Plasmodium berghei    INHIBITION    29.4%
37  CN(C)CCN1CCC2(CCN(C(=O)c3cccnc3)CC2)C1=O  Plasmodium berghei    INHIBITION   -23.3%
38  CN(CC1CCOCC1)C1CCCN(c2ccccn2)C1 (configuration not stated)  Plasmodium berghei    INHIBITION  18.805%
39  CNC(=O)C1CN(C)CCN1c1nc(C)cc(C)n1 (configuration not stated)  Plasmodium berghei    INHIBITION    -5.8%
40  CC(NC(=O)COc1ccccc1Cl)c1nnc2n1CCC2 (configuration not stated)  Plasmodium berghei    INHIBITION   -40.7%
41  CCN1CC(=O)NCC12CCN(C(=O)c1ccco1)C2 (configuration not stated)  Plasmodium berghei    INHIBITION    1.34%
42  COc1ccc(-n2ccc(C(=O)N(CCN(C)C)C(C)C)n2)cc1  Plasmodium berghei    INHIBITION    18.2%
43  CS(=O)(=O)c1cncnc1C1CCCN(C(=O)Nc2ccccc2F)C1 (configuration not stated)  Plasmodium berghei    INHIBITION   -8.76%
44  Cc1ccc(N2CCN(C(=O)CCc3n[nH]c(C)n3)CC2=O)cc1  Plasmodium berghei    INHIBITION     2.7%
45  N#Cc1cccc(CN2C[C@H](NC(=O)C3CC3)[C@H]3OCCC[C@H]32)c1  Plasmodium berghei    INHIBITION    35.8%
46                   CC(C)N1CCC2(CCNCC2)C1=O  Plasmodium berghei    INHIBITION   -25.8%
47  CSCCC(=O)N1CCN(CC(O)C(C)(C)C)CC1 (configuration not stated)  Plasmodium berghei    INHIBITION   -46.4%
